Biological target: T1, cynomolgus monkey TIGIT expressed on cells (cynomolgus monkey)
T1 construct: HEK 293 cells stably expressing cynomolgus monkey TIGIT or cynomolgus T cells; also called Cyno TIGIT HEK
T1 sequence (chain, as listed by the source limits assumed): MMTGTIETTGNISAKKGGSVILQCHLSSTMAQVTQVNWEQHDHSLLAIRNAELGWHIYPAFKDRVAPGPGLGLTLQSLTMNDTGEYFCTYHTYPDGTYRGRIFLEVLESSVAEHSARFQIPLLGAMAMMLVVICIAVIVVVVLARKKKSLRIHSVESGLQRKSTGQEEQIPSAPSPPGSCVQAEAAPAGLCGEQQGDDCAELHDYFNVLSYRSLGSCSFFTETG
Test: flow cytometry on HEK 293 cells expressing the target, MFI over parental HEK 293;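 note: bound antibody detected with PE-labelled anti-human IgG, 15 min on ice. FOB equals median fluorescence on TIGIT-positive cells divided by that on target-negative cells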
Entries and their FOB (Fold Over Background) values follow.
quantity: FOB (Fold Over Background) (fold)

# binder, numeric_value
data = [
    ("Clone 25A (antibody, V domains shown) VH: QVQLVQSGAEVKKPGASVKVSCKASGYTFTSYAISWVRQAPGQGLEWMGWISAYNGNTKYAQKLQGRVTMTTDTSTSTAYMELRSLRSDDTAVYYCARDLSSFWSGDVLGAFDIWGQGTMVTVSS VL: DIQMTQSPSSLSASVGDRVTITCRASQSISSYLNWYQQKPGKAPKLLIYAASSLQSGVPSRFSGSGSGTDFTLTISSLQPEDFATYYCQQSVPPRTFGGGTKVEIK", 238),
    ("Clone 25C (antibody, V domains shown) VH: QVQLVQSGAEVKKPGASVKVSCKASGYTFTSYPIGWVRQAPGQGLEWMGWISSYNGNTNYAQKLQGRVTMTTDTSTSTAYMELRSLRSDDTAVYYCARGASSFWSGDVLGAFDIWGQGTMVTVSS VL: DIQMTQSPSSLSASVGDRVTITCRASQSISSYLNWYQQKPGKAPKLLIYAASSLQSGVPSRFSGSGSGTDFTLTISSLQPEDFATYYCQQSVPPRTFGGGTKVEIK", 286),
    ("Clone 2 (antibody, V domains shown, Fully human IgG produced in yeast; also called anti-TIGIT antibody clone 2) VH: EVQLVESGGGLVQPGGSLRLSCAASGFTFSDHYMDWVRQAPGKGLEWVGRTRNKANSYTTEYAASVKGRFTISRDDSKNSLYLQMNSLKTEDTAVYYCARGQYYYGSSSRGYYYMDVWGQGTTVTVSS VL: EIVLTQSPGTLSLSPGERATLSCRASQSVSSSYLAWYQQKPGQAPRLLIYGASSRATGIPDRFSGSGSGTDFTLTISRLEPEDFAVYYCQQAVPSPLTFGGGTKVEIK", 162),
    ("Clone 25D (antibody, V domains shown) VH: QVQLVQSGAEVKKPGASVKVSCKASGYTFTSYPIGWVRQAPGQGLEWMGWISSYNGNTNYAQKLQGRVTMTTDTSTSTAYMELRSLRSDDTAVYYCARDLKSFWSGDVLGAFDIWGQGTMVTVSS VL: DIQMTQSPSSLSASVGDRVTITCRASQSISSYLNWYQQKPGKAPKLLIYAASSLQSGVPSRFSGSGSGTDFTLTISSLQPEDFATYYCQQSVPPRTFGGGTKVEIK", 272),
    ("Clone 16D (antibody, V domains shown) VH: QVQLVQSGAEVKKPGSSVKVSCKASGGTFSDYPISWVRQAPGQGLEWMGGIIPIVGGANYAQKFQGRVTITADESTSTAYMELSSLRSEDTAVYYCTRQSTWHKLFGTDVWGQGTTVTVSS VL: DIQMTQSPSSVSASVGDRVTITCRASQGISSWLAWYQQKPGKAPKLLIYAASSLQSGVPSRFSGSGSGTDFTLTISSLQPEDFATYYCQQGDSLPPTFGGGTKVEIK", 241),
    ("Clone 25B (antibody, V domains shown) VH: QVQLVQSGAEVKKPGASVKVSCKASGYTFTSYPIGWVRQAPGQGLEWMGWISSYNGNTNYAQKLQGRVTMTTDTSTSTAYMELRSLRSDDTAVYYCARDLSSFWSGDVLGAFDIWGQGTMVTVSS VL: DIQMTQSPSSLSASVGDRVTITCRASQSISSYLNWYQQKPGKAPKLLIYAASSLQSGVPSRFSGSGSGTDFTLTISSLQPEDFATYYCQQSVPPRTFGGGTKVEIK", 291),
    ("Clone 25 (antibody, V domains shown, Fully human IgG produced in yeast; also called anti-TIGIT clone 25) VH: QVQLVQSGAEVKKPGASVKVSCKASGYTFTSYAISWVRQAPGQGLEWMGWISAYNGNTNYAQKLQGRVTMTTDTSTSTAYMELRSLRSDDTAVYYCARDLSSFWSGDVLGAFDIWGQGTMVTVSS VL: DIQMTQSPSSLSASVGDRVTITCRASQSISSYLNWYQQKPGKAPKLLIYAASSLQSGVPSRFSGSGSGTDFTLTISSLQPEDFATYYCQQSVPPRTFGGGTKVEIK", 247),
    ("Clone 25E (antibody, V domains shown) VH: QVQLVQSGAEVKKPGASVKVSCKASGYTFTSYAIAWVRQAPGQGLEWMGWISAYNGNTNYAQKLQGRVTMTTDTSTSTAYMELRSLRSDDTAVYYCARSGSSFWSGDVLGAFDIWGQGTMVTVSS VL: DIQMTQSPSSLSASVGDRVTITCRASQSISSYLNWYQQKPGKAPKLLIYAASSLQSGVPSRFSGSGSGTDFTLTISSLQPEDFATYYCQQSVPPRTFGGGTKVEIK", 252),
    ("Clone 2C (antibody, V domains shown) VH: EVQLVESGGGLVQPGGSLRLSCAASGFTFTDYYMDWVRQAPGKGLEWVGRTRNKVNSYYTEYAASVKGRFTISRDDSKNSLYLQMNSLKTEDTAVYYCARGQYYYGSDRRGYYYMDVWGQGTTVTVSS VL: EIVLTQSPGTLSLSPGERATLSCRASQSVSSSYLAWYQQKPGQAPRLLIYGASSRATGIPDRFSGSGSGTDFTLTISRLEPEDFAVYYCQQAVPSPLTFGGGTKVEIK", 224),
]
